Target System: T1, recombinant soluble human GARP-TGFβ1 complex (human, UniProt Q14392 20-628; P01137 30-390)
T1 construct: co-expressed in HEK293E, purified by the Strep-Tag; TGFβ consists of LAP and mature TGFβ; also called shGARP-TGFβ; rhGARP-TGFβ
T1 sequence (Q14392 other isoform, or with tags, fused parts or gaps limits assumed, chain 1 of 2): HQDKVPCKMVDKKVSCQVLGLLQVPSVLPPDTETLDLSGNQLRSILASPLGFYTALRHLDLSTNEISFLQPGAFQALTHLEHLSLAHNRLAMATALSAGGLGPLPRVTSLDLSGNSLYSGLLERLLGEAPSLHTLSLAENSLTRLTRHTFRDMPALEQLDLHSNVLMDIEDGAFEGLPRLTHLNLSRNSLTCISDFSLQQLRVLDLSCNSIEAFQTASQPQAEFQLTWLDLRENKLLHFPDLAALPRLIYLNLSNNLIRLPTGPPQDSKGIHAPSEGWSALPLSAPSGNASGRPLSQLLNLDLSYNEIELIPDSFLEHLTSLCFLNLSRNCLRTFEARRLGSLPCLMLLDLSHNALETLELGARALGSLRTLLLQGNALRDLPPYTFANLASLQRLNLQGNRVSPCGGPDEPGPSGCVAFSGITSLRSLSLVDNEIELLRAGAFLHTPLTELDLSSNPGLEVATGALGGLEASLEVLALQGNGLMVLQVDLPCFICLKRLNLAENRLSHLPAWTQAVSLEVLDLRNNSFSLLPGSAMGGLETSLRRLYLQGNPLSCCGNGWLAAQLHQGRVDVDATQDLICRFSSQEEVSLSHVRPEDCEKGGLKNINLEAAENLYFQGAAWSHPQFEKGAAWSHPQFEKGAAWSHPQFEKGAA
T1 sequence (P01137 30-390 limits assumed, chain 2 of 2): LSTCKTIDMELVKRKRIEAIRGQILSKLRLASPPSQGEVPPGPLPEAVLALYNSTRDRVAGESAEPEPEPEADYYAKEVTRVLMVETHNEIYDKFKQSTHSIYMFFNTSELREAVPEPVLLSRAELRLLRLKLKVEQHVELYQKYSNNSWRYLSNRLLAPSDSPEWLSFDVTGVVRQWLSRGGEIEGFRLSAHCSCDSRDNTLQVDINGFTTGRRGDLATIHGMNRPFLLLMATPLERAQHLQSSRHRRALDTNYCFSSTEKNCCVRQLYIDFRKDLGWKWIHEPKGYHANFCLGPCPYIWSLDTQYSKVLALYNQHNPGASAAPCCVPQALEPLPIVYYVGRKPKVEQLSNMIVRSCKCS
Procedure Summary: SPR (Biacore), hGARP-TGFβ1 immobilised
Endpoint Name: fold improvement of ka (reference LHG-10-D) (fold)
Report the value in fold with no unit label.

What does the data say about its fold improvement of ka (reference LHG-10-D)? Entry: LHG-10.5-D (antibody, human IgG1, V domains shown) VH: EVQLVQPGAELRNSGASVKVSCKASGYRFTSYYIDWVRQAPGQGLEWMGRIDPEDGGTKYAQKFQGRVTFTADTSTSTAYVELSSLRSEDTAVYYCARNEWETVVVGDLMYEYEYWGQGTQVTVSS VL: DIQMTQSPSSLSPSLGDRVTITCQASQTISSFLAWYHQKPGQPPKLLIYRASIPQTGVPSRFSGSGSGTSFTLTIGGLEAEDAGTYYCQQYVSAPPTFGQGTKVELK
0.4

What does the data say about its fold improvement of ka (reference LHG-10-D)? Entry: LHG-10-D (antibody, human IgG1, V domains shown) VH: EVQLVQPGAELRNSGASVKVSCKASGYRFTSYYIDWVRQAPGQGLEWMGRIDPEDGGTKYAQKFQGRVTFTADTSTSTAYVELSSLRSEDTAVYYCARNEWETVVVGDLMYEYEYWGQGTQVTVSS VL: DIQMTQSPTSLSASLGDRVTITCQASQSISSYLAWYQQKPGQAPKLLIYGASRLQTGVPSRFSGSGSGTSFTLTISGLEAEDAGTYYCQQYDSLPVTFGQGTKVELK
1

---
What does the data say about its fold improvement of ka (reference LHG-10-D)? Entry: LHG-10.3-D (antibody, human IgG1, V domains shown) VH: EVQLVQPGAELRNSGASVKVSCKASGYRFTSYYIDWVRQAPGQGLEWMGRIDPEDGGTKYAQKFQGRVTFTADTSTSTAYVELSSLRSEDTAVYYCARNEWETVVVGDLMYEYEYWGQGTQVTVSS VL: DIQMTQSPSSLSASLGDRVTITCQASQSIVSYLAWYQQKPGQAPKLLIYGASRLQTGVPSRFSGSGSGTSFTLTISGLEAEDAGTYYCQQYASAPVTFGQGTGVELK
0.6

Value source: patent US20160251438A1
